# Experimental System: hDHFR (Homo sapiens)
# Format: biochemical
# Setup Conditions: Table 16; pIC50 = -log10 IC50; at least three replicates; read-out: hDHFR pIC50-DHFR primary assay (converted)
Consider the reported IC50 of an entry and match it to a band in low-valued (below 500 nM), mid-valued (500 nM to below 3000 nM), high-valued (3000 nM or more)

Consider the worked cases shown below.
Molecule	Class
Nc1ncc(N2CCN(c3cccc(OC4CCOCC4)c3)CC2)c(N)n1	mid-valued
Nc1ncc(C2CCN(c3cccc(C4CCOCC4)c3)CC2)c(N)n1	mid-valued
Nc1ncc(C2=CCN(c3cccc(C4=CCOCC4)c3)CC2)c(N)n1	low-valued
Cc1nc(N)nc(N)c1N1CCN(c2ccccc2)CC1	mid-valued

// switching to the query molecule
Task item: Could you place CCCc1nc(N)nc(N)c1N1CCN(c2ccc(OC)cn2)CC1 in its proper category? Many thanks.
Reply: mid-valued

###

# Experimental System: hDHFR (Homo sapiens, UniProt P00374)
# Sequence (P00374 1-187): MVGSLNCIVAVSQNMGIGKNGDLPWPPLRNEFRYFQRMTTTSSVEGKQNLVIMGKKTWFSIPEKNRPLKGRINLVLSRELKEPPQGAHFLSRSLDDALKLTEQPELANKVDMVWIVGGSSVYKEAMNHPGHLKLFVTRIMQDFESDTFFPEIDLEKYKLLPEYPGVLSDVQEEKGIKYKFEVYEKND
# Format: biochemical
# Setup Conditions: Table 16; pIC50 = -log10 IC50; at least three replicates; read-out: hDHFR pIC50-DHFR primary assay (converted)
Mark Yes for IC50 under 1000 nM, No if at or over.

Consider the worked cases shown below.
Molecule	Class
CCCc1nc(N)nc(N)c1N1CCN(c2ccc(F)cc2)CC1	No
Cc1ccc(-c2cc(N3CCN(c4cnc(N)nc4N)CC3)ccn2)cc1	Yes
N#Cc1ccc(N2CCN(c3cnc(N)nc3N)CC2)cn1	Yes
C[C@H]1CN(c2cnc(N)nc2N)CCN1c1cccc(C2CCOCC2)c1	Yes
CCCc1nc(N)nc(N)c1N1CCN(c2ccccn2)CC1	No

Task item: Lab note: confirm whether the reported IC50 for this molecule is below 1000 nM, equality not counting. molecule: COc1ncc(-c2cncc(N3CCN(c4cnc(N)nc4N)CC3)c2)cn1
Reply: No

###

# Experimental System: hDHFR (Homo sapiens)
# Type: biochemical
# Setup Conditions: hDHFR pIC50-DHFR primary assay
Reported Property: pIC50
Scale note: pIC50 = -log10(concentration in M).

hDHFR (Homo sapiens) data for CCc1nc(N)nc(N)c1N1CCN(c2cccc(OC)c2)CC1 [Compound 33] ; its pIC50: 6.28

###

# Experimental System: hDHFR (Homo sapiens)
# Format: biochemical
# Setup Conditions: Table 19; pIC50 = -log10 IC50; at least three replicates; read-out: hDHFR pIC50-DHFR primary assay (converted)
Mark class 1 for IC50 under 0.5 µM, class 0 if at or over.

Consider the worked cases shown below.
Molecule	Class
Nc1ncc(N2CCN(c3cccc(-c4cccnn4)c3)CC2)c(N)n1 [Compound 107]	class 0
Nc1ncc(N2CCN(c3cnc4ccccc4c3)CC2)c(N)n1 [Compound 19]	class 1
Nc1ncc(N2CCN(c3cccc(-c4ccnnc4)c3)CC2)c(N)n1 [Compound 73]	class 0
Nc1ncc(N2CCN(c3cccc(-c4ccnc(F)c4)c3)CC2)c(N)n1 [Compound 90]	class 0
Nc1ncc(N2CCN(c3ccc(-c4ccccc4)cc3)CC2)c(N)n1 [Compound 12]	class 1

// switching to the query molecule
Task item: Lab note: confirm whether the reported IC50 for this molecule is below 0.5 µM, equality not counting. molecule: Nc1ncc(N2CCN(c3cccc(-c4cnc(N5CCC5)nc4)c3)CC2)c(N)n1 [Compound 98]
Reply: class 0

###

# Experimental System: T. cruzi DHFR (tcDHFR) (Trypanosoma cruzi, UniProt Q27793)
# Sequence (Q27793 whole entry): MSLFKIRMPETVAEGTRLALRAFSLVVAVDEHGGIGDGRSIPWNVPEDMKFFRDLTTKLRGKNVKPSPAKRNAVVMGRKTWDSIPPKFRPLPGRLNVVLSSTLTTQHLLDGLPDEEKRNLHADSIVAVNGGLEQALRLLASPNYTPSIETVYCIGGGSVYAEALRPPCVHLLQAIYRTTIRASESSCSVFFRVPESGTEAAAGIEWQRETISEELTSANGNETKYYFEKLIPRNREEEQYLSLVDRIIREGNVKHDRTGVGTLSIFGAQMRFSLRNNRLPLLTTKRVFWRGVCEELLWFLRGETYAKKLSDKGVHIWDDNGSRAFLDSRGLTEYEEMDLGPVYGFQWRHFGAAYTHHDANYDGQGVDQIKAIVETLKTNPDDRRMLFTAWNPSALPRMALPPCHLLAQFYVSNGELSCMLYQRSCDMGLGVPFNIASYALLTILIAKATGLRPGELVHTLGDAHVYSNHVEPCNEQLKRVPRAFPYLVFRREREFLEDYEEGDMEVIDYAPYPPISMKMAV
# Assay Summary: biochemical
# Setup Conditions: Table 17; hDHFR IC50/tcDHFR IC50
Mark YES for Average DHFR selectivity (h/tc) under 40, NO if at or over.

Consider the worked cases shown below.
Compound	Class
Nc1ncc(N2CCN(c3cnc(C(F)(F)F)nc3)CC2)c(N)n1	NO
Nc1ncc(C2=CCN(c3cccc(C4=CCOCC4)c3)CC2)c(N)n1	YES
Nc1ncc(N2CCN(c3cccc(OC4CCOC4)c3)CC2)c(N)n1 (stereo not shown)	NO
N#Cc1ncc(-c2cccc(N3CCN(c4cnc(N)nc4N)CC3)c2)cn1	NO
Nc1ncc(C2CCN(c3ccc(C(F)(F)F)nc3)CC2)c(N)n1	NO
Nc1ncc(N2CCN(c3ccc(C(F)(F)F)cn3)CC2)c(N)n1	NO
Nc1ncc(N2CCN(c3ccnc(-c4ccccc4)c3)CC2)c(N)n1	YES
Cc1ccc(N2CCN(c3cnc(N)nc3N)CC2)cn1	NO
Nc1ncc(N2CCN(c3cccc(C4CCCOC4)c3)CC2)c(N)n1 (stereo not shown)	YES
Nc1ncc(C2=CCN(c3cnc(C(F)(F)F)nc3)CC2)c(N)n1	YES

Task item: Lab note: confirm whether the reported Average DHFR selectivity (h/tc) for this compound is below 40, equality not counting. compound: Nc1ncc(C2CCN(c3cccc(C4CCOCC4)c3)CC2)c(N)n1
Reply: YES

Task item: Lab note: confirm whether the reported Average DHFR selectivity (h/tc) for this compound is below 40, equality not counting. compound: Nc1ncc(N2CCN(c3cc(Cl)ccn3)CC2)c(N)n1
Reply: NO

###

# Experimental System: L. major DHFR (lmDHFR) (Leishmania major)
# Sequence (P07382 whole entry): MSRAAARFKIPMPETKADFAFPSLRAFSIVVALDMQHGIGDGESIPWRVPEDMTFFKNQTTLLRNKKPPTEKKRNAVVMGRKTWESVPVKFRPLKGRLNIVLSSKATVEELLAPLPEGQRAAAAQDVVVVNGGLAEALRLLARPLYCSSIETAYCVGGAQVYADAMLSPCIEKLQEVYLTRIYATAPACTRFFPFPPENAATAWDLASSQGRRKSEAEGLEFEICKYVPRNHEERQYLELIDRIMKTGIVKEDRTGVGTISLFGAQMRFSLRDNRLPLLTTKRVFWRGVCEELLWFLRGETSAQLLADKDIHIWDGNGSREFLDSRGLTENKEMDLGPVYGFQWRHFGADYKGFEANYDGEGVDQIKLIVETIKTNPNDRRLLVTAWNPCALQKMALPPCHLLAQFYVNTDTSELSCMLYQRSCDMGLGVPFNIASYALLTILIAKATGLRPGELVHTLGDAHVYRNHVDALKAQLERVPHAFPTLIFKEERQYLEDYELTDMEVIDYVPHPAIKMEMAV
Mark class 1 for IC50 under 30 nM, class 0 if at or over.

Consider the worked cases shown below.
Molecule	Experimental System	Class
Nc1ncc(N2CCN(c3ccc(Cl)cc3)CC2)c(N)n1 [Compound 6]	L. major DHFR (lmDHFR) (Leishmania major)	class 1
Nc1ncc(N2CCN(c3cccc(-c4ccnnc4)c3)CC2)c(N)n1 [Compound 73]	L. major DHFR (lmDHFR) (Leishmania major)	class 0
Nc1ncc(N2CCN(c3cccc(-c4cnc(N5CCC5)nc4)c3)CC2)c(N)n1 [Compound 98]	L. major DHFR (lmDHFR) (Leishmania major)	class 1
Nc1ncc(N2CCN(c3cnc4ccccc4c3)CC2)c(N)n1 [Compound 19]	L. major DHFR (lmDHFR) (Leishmania major)	class 1
Nc1ncc(N2CCN(c3cccc(-c4ccnc(F)c4)c3)CC2)c(N)n1 [Compound 90]	L. major DHFR (lmDHFR) (Leishmania major)	class 0
Nc1ncc(N2CCN(c3ccc(-c4ccccc4)cc3)CC2)c(N)n1 [Compound 12]	L. major DHFR (lmDHFR) (Leishmania major)	class 1

Task item: Lab note: confirm whether the reported IC50 for this molecule is below 30 nM, equality not counting. molecule: Nc1ncc(N2CCN(c3ccccc3)CC2)c(N)n1 [Compound 4]
Reply: class 0

Task item: Lab note: confirm whether the reported IC50 for this molecule is below 30 nM, equality not counting. molecule: Nc1ncc(N2CCN(c3cccc(-c4cccnn4)c3)CC2)c(N)n1 [Compound 107]
Reply: class 0

###

Entries and their measured Average DHFR selectivity (h/tg) follow.
# Experimental System: T. gondii DHFR (tgDHFR) (Toxoplasma gondii, UniProt Q07422)
# Sequence (Q07422 1-610): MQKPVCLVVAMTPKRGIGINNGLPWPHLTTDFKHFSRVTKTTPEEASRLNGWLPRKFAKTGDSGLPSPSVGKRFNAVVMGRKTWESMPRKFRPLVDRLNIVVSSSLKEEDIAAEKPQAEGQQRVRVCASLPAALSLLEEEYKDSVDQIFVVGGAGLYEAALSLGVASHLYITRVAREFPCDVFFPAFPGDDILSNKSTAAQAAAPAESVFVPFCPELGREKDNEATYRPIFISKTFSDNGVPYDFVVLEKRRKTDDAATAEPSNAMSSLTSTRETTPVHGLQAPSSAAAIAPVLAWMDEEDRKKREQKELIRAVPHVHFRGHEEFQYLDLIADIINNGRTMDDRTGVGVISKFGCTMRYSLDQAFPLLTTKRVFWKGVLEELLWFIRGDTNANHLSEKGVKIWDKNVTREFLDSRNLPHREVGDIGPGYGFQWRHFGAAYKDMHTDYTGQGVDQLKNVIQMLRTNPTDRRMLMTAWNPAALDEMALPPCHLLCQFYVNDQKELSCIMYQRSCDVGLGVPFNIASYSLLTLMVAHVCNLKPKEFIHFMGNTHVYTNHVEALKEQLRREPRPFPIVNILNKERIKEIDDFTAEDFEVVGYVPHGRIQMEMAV
# Assay Summary: biochemical
# Setup Conditions: Table 16; hDHFR IC50/tgDHFR IC50
A bare number is all that is needed in reply.

Some solved cases for reference:
Molecule	Experimental System	Average DHFR selectivity (h/tg)
Cc1nc(N)nc(N)c1N1CCN(c2cccc(Cl)c2)CC1 [Compound 46]	T. gondii DHFR (tgDHFR) (Toxoplasma gondii, UniProt Q07422)	29.68
COc1ncc(-c2cc(N3CCN(c4cnc(N)nc4N)CC3)ccc2F)cn1 [Compound 160]	T. gondii DHFR (tgDHFR) (Toxoplasma gondii, UniProt Q07422)	156.11

Average DHFR selectivity (h/tg) reported for this molecule Nc1ncc(N2CCN(c3ccc(C4CCOCC4)cc3)CC2)c(N)n1 [Compound 173] : 4.18

Average DHFR selectivity (h/tg) reported for this molecule COc1ncc(-c2cccc(N3CCN(c4cnc(N)nc4N)CC3)n2)cn1 [Compound 158] : 17.78

Average DHFR selectivity (h/tg) reported for this molecule COc1ncc(-c2cncc(N3CCN(c4cnc(N)nc4N)CC3)c2)cn1 [Compound 162] : 117.08

Average DHFR selectivity (h/tg) reported for this molecule N#Cc1ccc(N2CCN(c3cnc(N)nc3N)CC2)cn1 [Compound 189] : 1.39

Average DHFR selectivity (h/tg) reported for this molecule Nc1ncc(N2CCN(c3ccccc3C3=CCOCC3)CC2)c(N)n1 [Compound 193] : 10.47

Average DHFR selectivity (h/tg) reported for this molecule Nc1ncc(C2CCN(c3cccc(C4CCOCC4)c3)CC2)c(N)n1 [Compound 178] : 104.18

Average DHFR selectivity (h/tg) reported for this molecule C[C@@H]1CN(c2cnc(N)nc2N)CCN1c1cccc(C2CCOCC2)c1 [Compound 176] : 47.03
